System: HeLa cervix carcinoma cells
EXPERIMENTAL PROTOCOL: Cytostatic assay, HeLa
Assay type: cell-based, human
TEST CONDITIONS: Homo sapiens; Table 3; read-out: Cytostatic activity (μM) Hela
PARAMETER MEASURED: IC50 (µM)

Here is how some compounds turned out for IC50.
- COMPOUND: "CCOC(=O)c1cc(-c2ccccc2OC)sc1N [TR531]"
  OBS VALUE: 40
- COMPOUND: "COc1ccccc1CCc1cc(C#N)c(N)s1 [TR585]"
  OBS VALUE: 8.3
- COMPOUND: "N#Cc1cc(CCc2ccccc2)sc1N [TR588]"
  OBS VALUE: 27
- COMPOUND: "COc1ccc(CCc2cc(C#N)c(N)s2)cc1 [TR586]"
  OBS VALUE: 21
- COMPOUND: "COC(=O)c1cc(-c2ccccc2OC)sc1N [TR581]"
  OBS VALUE: 41
- COMPOUND: "COc1ccc(OC)c(CCc2cc(C#N)c(N)s2)c1 [TR589]"
  OBS VALUE: 0.13
- COMPOUND: "CCOC(=O)c1cc(CCc2cc(OC)ccc2OC)sc1N [TR587]"
  OBS VALUE: 0.33

a = COC(=O)c1cc(CCc2ccccn2)sc1N [TR596]
b = COC(=O)c1cc(CCc2cccnc2)sc1N [TR597]
c = CCOC(=O)c1c(N)sc(CCc2cc(OC)ccc2OC)c1C(=O)OCC [TR592]
Prompt: Highest IC50 first, then in falling order down to the smallest. // rank by listing labels in the order requested
Response: b, a, c
(b: 170 µM, a: 45 µM, c: 11 µM)

* * *

Tested on: DNA synthesis in CEM cells
EXPERIMENTAL PROTOCOL: Antimetabolic activity assay, [CH3-3H]dThd incorporation (DNA synthesis), CEM
Assay type: cell-based
TEST CONDITIONS: Homo sapiens, CCRF-CEM, incorporation into TCA-insoluble material
PARAMETER MEASURED: IC50

- SUBSTANCE SMILES: "COc1ccccc1CCc1cc(C#N)c(N)s1"
  IC50: "> 100 µM"
- SUBSTANCE SMILES: "COC(=O)c1cc(CCc2cc(OC)ccc2OC)sc1N"
  IC50: "7.5 µM"

Kindly review the next molecule as well.
Prompt: Which value of IC50 has been reported for COc1ccc(OC)c(CCc2cc(C#N)c(N)s2)c1 in the records?
Response: > 100 µM

* * *

Test system: HUT-78 cells
EXPERIMENTAL PROTOCOL: Cytostatic assay, HUT-78
Type: cell-based
TEST CONDITIONS: Homo sapiens, HuT78; Table 2
PARAMETER MEASURED: IC50 (µM)

Take a look at these entries with their results.
- MOLECULE: "COC(=O)c1cc(CCc2ccsc2)sc1N [TR595]"
  OBS VALUE: 38
- MOLECULE: "COc1ccc(OC)c(CCc2cc(C#N)c(N)s2)c1 [TR589]"
  OBS VALUE: 0.062
- MOLECULE: "COC(=O)c1cc(-c2ccccc2OC)sc1N [TR581]"
  OBS VALUE: 152

1 = COC(=O)c1cc(CCc2ccccc2)sc1N [TR575]
2 = CCOC(=O)c1cc(CCc2ccccc2OC)sc1N [TR542]
Prompt: # compare IC50 for 1 vs 2 ; return the one with the smaller value // output: label of the selected item
Response: 1
